experimental_protocol: AUC (0 to 24 hrs) in candidiasis patient at 10 mg/kg, iv by HPLC
Assay type: ADME, organism-based
Parameters: time < 24 hr, dose 10 mg/kg, route intravenous
run_conditions: human, plasma
Starred links: 1 amine or outer side, 2 acyl side, 3 side chain; linkers in the order of their positions; H or OH if unused. Positions of bridges follow the written chain, without caps; N, C: chain ends. Non-standard residues stand in square brackets, D forms with d. Residues, ends and D or L forms follow the SMILES beside them. *: point of attachment. hTyr(3S-OH,4S-OH,3'-OSO3H) = N[C@H](C(=O)O)[C@H](O)[C@@H](O)c1ccc(O)c(OS(=O)(=O)O)c1; Orn(4R-OH,5R-OH) = O=C([C@H](C[C@@H](O)[C@@H](O)N[*:3])N[*:1])[*:2]; Pro(3S-OH,4S-Me) = C[C@H]1CN[C@H](C(=O)O)[C@H]1O; X1 = CCCCCOc1ccc(-c2cc(-c3ccc(C(=O)*)cc3)no2)cc1; Gln(3R-OH) = NC(=O)C[C@@H](O)[C@H](N)C(=O)O; Hyp = O=C(O)[C@@H]1C[C@@H](O)CN1
metric: AUC(0-t) at 24 h

Asked: Look at this compound and give its reported AUC(0-t) at 24 h. CCCCCOc1ccc(-c2cc(-c3ccc(C(=O)N[C@H]4C[C@@H](O)[C@@H](O)NC(=O)[C@@H]5[C@@H](O)[C@@H](C)CN5C(=O)[C@H]([C@H](O)CC(N)=O)NC(=O)[C@H]([C@H](O)[C@@H](O)c5ccc(O)c(OS(=O)(=O)O)c5)NC(=O)[C@@H]5C[C@@H](O)CN5C(=O)[C@H]([C@@H](C)O)NC4=O)cc3)no2)cc1 [MICAFUNGIN] (X1-[Orn(4R-OH,5R-OH)]T[Hyp][hTyr(3S-OH,4S-OH,3'-OSO3H)][Gln(3R-OH)][Pro(3S-OH,4S-Me)]; lactam 1-C)
Given back: < 166 µg·h/mL
